biological target: human PCSK9 (Homo sapiens, UniProt Q8NBP7); assay: PCSK9 ligand binding assay (TR-FRET): interference with binding of human PCSK9 to human LDLR; conditions: Human PCSK9 Alexa Fluor 647 / Human LDLR extracellular domain-Europium Kryptate
Sequence (Q8NBP7 153-692): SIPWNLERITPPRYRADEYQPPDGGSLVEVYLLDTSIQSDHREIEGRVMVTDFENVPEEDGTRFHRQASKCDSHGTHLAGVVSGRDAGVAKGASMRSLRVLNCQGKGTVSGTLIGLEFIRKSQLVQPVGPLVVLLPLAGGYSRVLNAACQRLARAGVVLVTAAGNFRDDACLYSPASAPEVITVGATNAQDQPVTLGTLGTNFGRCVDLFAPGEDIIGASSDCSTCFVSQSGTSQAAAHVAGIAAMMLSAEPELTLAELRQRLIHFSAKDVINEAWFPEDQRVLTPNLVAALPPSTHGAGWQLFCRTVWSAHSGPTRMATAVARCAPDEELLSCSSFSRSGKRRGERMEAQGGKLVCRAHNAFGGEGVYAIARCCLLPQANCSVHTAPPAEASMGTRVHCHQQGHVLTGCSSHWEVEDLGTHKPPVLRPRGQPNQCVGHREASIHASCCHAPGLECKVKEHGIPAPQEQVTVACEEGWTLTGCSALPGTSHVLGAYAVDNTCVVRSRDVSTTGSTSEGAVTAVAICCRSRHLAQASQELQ
Sequence (Q8NBP7 31-152 partner limits assumed): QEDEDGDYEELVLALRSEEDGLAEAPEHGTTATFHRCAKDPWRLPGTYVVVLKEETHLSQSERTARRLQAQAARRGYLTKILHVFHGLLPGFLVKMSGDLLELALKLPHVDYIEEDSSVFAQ
property measured: IC50 (nM)

# example entries with known answers
C[C@H]1C(=O)N[C@@H](CO)C(=O)N[C@@]2(Cc3ccc(Cl)cc3)CCCN(C2)C(=O)[C@H](CC(F)(F)F)CC(=O)N1Cc1ccc(Cl)cc1Oc1ccc(-c2cnc(CNC(C)(C)C)n2C)cc1; 0.72
COC[C@@H]1NC(=O)[C@H](C)N(Cc2c(F)cc(Cl)cc2Oc2ccc(-c3cnc(CN4CCCC4)n3C)cc2)C(=O)C[C@@H](Cc2cccc(C)n2)C(=O)N2CCC[C@@](Cc3ccc(Cl)cc3)(C2)N(C)C1=O; 0.632

a. COC[C@@H]1NC(=O)[C@H](C)N(Cc2ccc(Cl)cc2Oc2ccc(-c3cnc(CN(C)C)n3C)cc2)C(=O)C[C@@H](Cc2cccc(=O)n2C)C(=O)N2CCC[C@@](Cc3ccc(Cl)cc3)(C2)NC1=O
b. C[C@H]1C(=O)N[C@@H](CO)C(=O)N[C@@]2(Cc3ccc(Cl)cc3)CCCN(C2)C(=O)[C@H]([C@H]2CCc3ncccc32)CC(=O)N1Cc1ccc(Cl)cc1Oc1ccc(-c2cnc(CN(C)C)n2C)cc1.Cl
Query: Field: entry with larger IC50 (options a / b ). Output the label that corresponds to your choice.
Reply: a
